- Target Or System: monoclonal antibody MV-001
- Experiment Description: ELISA, peptide-BSA coated, MV-001
- Assay Context: scale: code
Consider the following binders; for each one, report its Binding Capacity.
Give only the figure.

Query block: Name the reported Binding Capacity value associated with the binder THTDFRHC [p4725]
Result block: 3

Query block: Name the reported Binding Capacity value associated with the binder EELRHSVC [p4746]
Result block: 3

Query block: Name the reported Binding Capacity value associated with the binder ATFRHSTC [p4735]
Result block: 2

Query block: Name the reported Binding Capacity value associated with the binder LQFKHSTC [p4734]
Result block: 2

Query block: Name the reported Binding Capacity value associated with the binder ADHDFRHC [p4740]
Result block: 3

Query block: Name the reported Binding Capacity value associated with the binder SELRHSTC [p4744]
Result block: 3

Query block: Name the reported Binding Capacity value associated with the binder LMFRHNC [p4386]
Result block: 3

Query block: Name the reported Binding Capacity value associated with the binder MLPFRHGC [p4731]
Result block: 2
